Entries and their percent binding
target or system: T1, human B7-1 K120D on cells (Homo sapiens, UniProt P33681 35-280)
T1 construct: mCherry-tagged point mutant; also called LYS120 ASP
T1 chain: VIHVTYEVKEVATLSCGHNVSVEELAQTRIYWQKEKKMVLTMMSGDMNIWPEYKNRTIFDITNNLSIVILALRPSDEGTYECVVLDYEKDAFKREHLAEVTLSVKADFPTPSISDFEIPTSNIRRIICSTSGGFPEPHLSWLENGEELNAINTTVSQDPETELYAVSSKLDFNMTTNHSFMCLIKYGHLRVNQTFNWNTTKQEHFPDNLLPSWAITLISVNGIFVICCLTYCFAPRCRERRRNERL
measurement description: cell-cell binding, flow cytometry; percent of the wild-type pair
Write it as a number; the unit % goes unstated.

Below, 2 binders whose answers are already recorded.
human p75NTR L165K on cells (receptor, Fluorescent-tagged point mutant; also called LEU165K*) KEACPTGLYTHSGECCKACNLGEGVAQPCGANQTVCEPCLDSVTFSDVVSATEPCKPCTECVGLQSMSAPCVEADDAVCRCAYGYYQDETTGRCEACRVCEAGSGLVFSCQDKQNTVCEECPDGTYSDEANHVDPCKPCTVCEDTERQLRECTRWADAECEEIPGRWITRSTPPEGSDSTAPSTQEPEAPPEQDLIASTVAGVVTTVMGSSQPVVTRGTTDNLIPVYCSILAAVVVGLVAYIAFKRWNSCKQNKQGANSRPVNQTPPPEGEKLHSDSGISVDSQSLHDQQPHTQTASGQALKGDGGLYSSLPPAKREEVEKLLNGSAGDTWRHLAGELGYQPEHIDSFTHEACPVRALLASWATQDSATLDALLAALRRIQRADLVESLCSESTATSPV
20
human p75NTR L165H on cells (receptor, Fluorescent-tagged point mutant; also called LEU165H*) KEACPTGLYTHSGECCKACNLGEGVAQPCGANQTVCEPCLDSVTFSDVVSATEPCKPCTECVGLQSMSAPCVEADDAVCRCAYGYYQDETTGRCEACRVCEAGSGLVFSCQDKQNTVCEECPDGTYSDEANHVDPCHPCTVCEDTERQLRECTRWADAECEEIPGRWITRSTPPEGSDSTAPSTQEPEAPPEQDLIASTVAGVVTTVMGSSQPVVTRGTTDNLIPVYCSILAAVVVGLVAYIAFKRWNSCKQNKQGANSRPVNQTPPPEGEKLHSDSGISVDSQSLHDQQPHTQTASGQALKGDGGLYSSLPPAKREEVEKLLNGSAGDTWRHLAGELGYQPEHIDSFTHEACPVRALLASWATQDSATLDALLAALRRIQRADLVESLCSESTATSPV
19

Task item: I would be grateful if you could share the reported percent binding for human p75NTR F136K on cells (receptor, Fluorescent-tagged point mutant) KEACPTGLYTHSGECCKACNLGEGVAQPCGANQTVCEPCLDSVTFSDVVSATEPCKPCTECVGLQSMSAPCVEADDAVCRCAYGYYQDETTGRCEACRVCEAGSGLVKSCQDKQNTVCEECPDGTYSDEANHVDPCLPCTVCEDTERQLRECTRWADAECEEIPGRWITRSTPPEGSDSTAPSTQEPEAPPEQDLIASTVAGVVTTVMGSSQPVVTRGTTDNLIPVYCSILAAVVVGLVAYIAFKRWNSCKQNKQGANSRPVNQTPPPEGEKLHSDSGISVDSQSLHDQQPHTQTASGQALKGDGGLYSSLPPAKREEVEKLLNGSAGDTWRHLAGELGYQPEHIDSFTHEACPVRALLASWATQDSATLDALLAALRRIQRADLVESLCSESTATSPV .
Reply: 16

Task item: I would be grateful if you could share the reported percent binding for human p75 neurotrophin receptor, full length, expressed on HEK 293 cells (receptor, Full-length human p75 with a cytosolic fluorescent tag (GFP); also called p75NTR; NGFR) KEACPTGLYTHSGECCKACNLGEGVAQPCGANQTVCEPCLDSVTFSDVVSATEPCKPCTECVGLQSMSAPCVEADDAVCRCAYGYYQDETTGRCEACRVCEAGSGLVFSCQDKQNTVCEECPDGTYSDEANHVDPCLPCTVCEDTERQLRECTRWADAECEEIPGRWITRSTPPEGSDSTAPSTQEPEAPPEQDLIASTVAGVVTTVMGSSQPVVTRGTTDNLIPVYCSILAAVVVGLVAYIAFKRWNSCKQNKQGANSRPVNQTPPPEGEKLHSDSGISVDSQSLHDQQPHTQTASGQALKGDGGLYSSLPPAKREEVEKLLNGSAGDTWRHLAGELGYQPEHIDSFTHEACPVRALLASWATQDSATLDALLAALRRIQRADLVESLCSESTATSPV .
Reply: 20

Task item: I would be grateful if you could share the reported percent binding for human p75NTR P150H on cells (receptor, Fluorescent-tagged point mutant) KEACPTGLYTHSGECCKACNLGEGVAQPCGANQTVCEPCLDSVTFSDVVSATEPCKPCTECVGLQSMSAPCVEADDAVCRCAYGYYQDETTGRCEACRVCEAGSGLVFSCQDKQNTVCEECHDGTYSDEANHVDPCLPCTVCEDTERQLRECTRWADAECEEIPGRWITRSTPPEGSDSTAPSTQEPEAPPEQDLIASTVAGVVTTVMGSSQPVVTRGTTDNLIPVYCSILAAVVVGLVAYIAFKRWNSCKQNKQGANSRPVNQTPPPEGEKLHSDSGISVDSQSLHDQQPHTQTASGQALKGDGGLYSSLPPAKREEVEKLLNGSAGDTWRHLAGELGYQPEHIDSFTHEACPVRALLASWATQDSATLDALLAALRRIQRADLVESLCSESTATSPV .
Reply: 16

Task item: I would be grateful if you could share the reported percent binding for human p75NTR F136H on cells (receptor, Fluorescent-tagged point mutant) KEACPTGLYTHSGECCKACNLGEGVAQPCGANQTVCEPCLDSVTFSDVVSATEPCKPCTECVGLQSMSAPCVEADDAVCRCAYGYYQDETTGRCEACRVCEAGSGLVHSCQDKQNTVCEECPDGTYSDEANHVDPCLPCTVCEDTERQLRECTRWADAECEEIPGRWITRSTPPEGSDSTAPSTQEPEAPPEQDLIASTVAGVVTTVMGSSQPVVTRGTTDNLIPVYCSILAAVVVGLVAYIAFKRWNSCKQNKQGANSRPVNQTPPPEGEKLHSDSGISVDSQSLHDQQPHTQTASGQALKGDGGLYSSLPPAKREEVEKLLNGSAGDTWRHLAGELGYQPEHIDSFTHEACPVRALLASWATQDSATLDALLAALRRIQRADLVESLCSESTATSPV .
Reply: 15

Task item: I would be grateful if you could share the reported percent binding for human p75NTR P150K on cells (receptor, Fluorescent-tagged point mutant) KEACPTGLYTHSGECCKACNLGEGVAQPCGANQTVCEPCLDSVTFSDVVSATEPCKPCTECVGLQSMSAPCVEADDAVCRCAYGYYQDETTGRCEACRVCEAGSGLVFSCQDKQNTVCEECKDGTYSDEANHVDPCLPCTVCEDTERQLRECTRWADAECEEIPGRWITRSTPPEGSDSTAPSTQEPEAPPEQDLIASTVAGVVTTVMGSSQPVVTRGTTDNLIPVYCSILAAVVVGLVAYIAFKRWNSCKQNKQGANSRPVNQTPPPEGEKLHSDSGISVDSQSLHDQQPHTQTASGQALKGDGGLYSSLPPAKREEVEKLLNGSAGDTWRHLAGELGYQPEHIDSFTHEACPVRALLASWATQDSATLDALLAALRRIQRADLVESLCSESTATSPV .
Reply: 17
